assay_details: clinical
experimental_setup: human, in vivo, po, 500 mg
observed_property: AUC(0-t)

## Input Using the record for `CN1CCN(c2ccc3nc(-c4c(N)c5c(F)cccc5[nH]c4=O)[nH]c3c2)CC1` , report its AUC(0-t).
## Output ~4100 ng·h/mL
